- target_or_system: UniProt:P30561
- Sequence (P30561 1-848 P471L/N533S/M589L): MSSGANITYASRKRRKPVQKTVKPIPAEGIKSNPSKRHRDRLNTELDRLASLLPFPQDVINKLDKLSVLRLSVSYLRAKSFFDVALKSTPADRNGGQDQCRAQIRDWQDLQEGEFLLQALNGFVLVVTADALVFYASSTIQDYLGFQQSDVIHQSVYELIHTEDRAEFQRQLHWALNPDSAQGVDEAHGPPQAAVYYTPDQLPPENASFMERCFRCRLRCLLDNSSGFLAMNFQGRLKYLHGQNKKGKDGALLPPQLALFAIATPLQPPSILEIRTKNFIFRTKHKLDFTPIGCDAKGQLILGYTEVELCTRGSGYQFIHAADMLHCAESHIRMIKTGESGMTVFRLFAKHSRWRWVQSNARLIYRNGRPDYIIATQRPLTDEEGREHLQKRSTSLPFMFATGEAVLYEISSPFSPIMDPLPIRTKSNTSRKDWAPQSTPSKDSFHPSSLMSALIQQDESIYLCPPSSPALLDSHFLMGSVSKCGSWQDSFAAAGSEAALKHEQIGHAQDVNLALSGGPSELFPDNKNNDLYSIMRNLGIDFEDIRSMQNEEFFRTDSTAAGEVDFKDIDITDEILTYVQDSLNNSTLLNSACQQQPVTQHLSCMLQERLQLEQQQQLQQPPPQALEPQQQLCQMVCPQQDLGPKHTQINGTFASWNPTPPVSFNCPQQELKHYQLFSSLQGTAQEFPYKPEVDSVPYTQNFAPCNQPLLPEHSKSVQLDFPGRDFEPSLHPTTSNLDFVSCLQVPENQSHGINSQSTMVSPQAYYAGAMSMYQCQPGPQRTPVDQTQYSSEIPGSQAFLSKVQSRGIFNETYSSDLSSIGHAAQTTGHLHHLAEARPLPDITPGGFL
- measurement_description: In vitro assay 3: antagonism in mouse cell line (AHR transactivation, firefly luciferase reporter, kynurenic acid prestimulated)
- Format: cell-based
- cond: mouse Hepa 1c1c7 cells, 200 μM kynurenic acid, 20 hours, read-out: AHR Antagonism Mouse IC50
- Experimental: Examples were tested in selected biological assays one or more times. […] Firefly luciferase activity was determined by the SteadyGlo Luciferase Assay System (Promega, #E2550).
observation_type: pIC50
Notebook: values listed as pIC50 are -log10 of the concentration (mol/L).

The cases that follow already have their pIC50 on record.
> print(dat)
                                   molecule  target.or.system  quantitative.result
1  CC[C@@H](Nc1nc2ccccc2c2nc(-c3cnccn3)nn12)C(N)=O    UniProt:P30561                 6.62
2  CN1CC[C@@H](Nc2nc3c(C(F)(F)F)cccc3c3nc(-c4cnn(C)c4)nn23)C1=O    UniProt:P30561                 5.18
3  Cc1ccccc1-c1nc2c3ccccc3nc(NC3CCCNC3=O)n2n1 (centres unmarked) [Example 44]    UniProt:P30561                 7.77
4  CC[C@H](Nc1nc2ccccc2c2nc(-c3ccc(Br)cc3OC(F)(F)F)nn12)C(N)=O    UniProt:P30561                 7.75
5  CN1CC[C@@H](Nc2nc3ccccc3c3nc(-c4ccsc4)nn23)C1=O    UniProt:P30561                 7.57

Which pIC50 value is on record for COc1cccc(-c2nc3c4ccccc4nc(N[C@H](C)C(=O)NC4CC4)n3n2)c1 ?
8.31

Now consider Cc1ccccc1-c1nc2c3ccccc3nc(NC3CCCNC3=O)n2n1 (single isomer, unassigned) [Example 48] and answer again.
7.21

Quick one: COc1cccc(-c2nc3c4ccc(F)cc4nc(N[C@H]4CCCCNC4=O)n3n2)c1
7.31

Entry source: patent US20230113037A1
